# tested.system: T1, Anti-CD28 Fab (SEQ ID NOs: 696, 697)
# T1 construct: Biotinylated and captured on neutravidin coated plates in the phage ELISA
# T1 sequence (VH, as listed by the source, chain 1 of 2): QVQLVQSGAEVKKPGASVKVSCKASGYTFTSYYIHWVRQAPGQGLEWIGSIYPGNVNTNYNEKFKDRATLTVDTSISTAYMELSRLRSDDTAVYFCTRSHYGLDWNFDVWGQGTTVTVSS
# T1 sequence (VL, as listed by the source, chain 2 of 2): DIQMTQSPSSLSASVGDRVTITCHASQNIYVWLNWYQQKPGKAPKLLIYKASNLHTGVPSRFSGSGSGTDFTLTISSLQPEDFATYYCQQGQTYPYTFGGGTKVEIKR
# method.notes: phage binding ELISA on captured anti-CD28 Fab; competitor: CD28 antigen at saturating concentration
measurement.name: Anti-CD28 Fab signal in the presence of CD28

YCEGHSWIYIAKCL (tested as crude clonal phage supernatant) [Phage-1215] | 0.07
YCDGHKPEYMDKCL (tested as crude clonal phage supernatant) [Phage-1219] | 0.07
YCEGHLREYMLKCL (tested as crude clonal phage supernatant) [Phage-1213] | 0.07
